Overview of reported ThT Cat. / ThT-Fluorescence (categorical) across a group of substances:
format: physicochemical; conditions: ThT-active if fluorescence at least twice the control

# count of solved cases: 4
- Substance: "EIKIQINM"
  Result Value: "1 (ThT. Cat is 1, if Rel. ThT >2)"
- Substance: "RGDKIKIQINMWQ"
  Result Value: "0 (ThT-inactive (N-Fold <2))"
- Substance: "CKIKIWIW"
  Result Value: "1 (ThT. Cat is 1, if Rel. ThT >2)"
- Substance: "RGDKIRGDKI"
  Result Value: "0 (ThT-inactive (N-Fold <2))"

-- ask Which ThT Cat. / ThT-Fluorescence (categorical) reading was recorded for the substance `RVWWNF` ?
-- reply 0 (ThT-inactive (N-Fold <2))

-- ask What do we get for `NMWQKFKFQF` ?
-- reply 0 (ThT-inactive (N-Fold <2))

-- ask What do we get for `KYKYQY` ?
-- reply 1 (ThT. Cat is 1, if Rel. ThT >2)

-- ask What do we get for `HHHHKAKAKAKAYYYY` ?
-- reply 0 (ThT-inactive (N-Fold <2))

-- ask What do we get for `NMWQKIKQII` ?
-- reply 0 (ThT-inactive (N-Fold <2))

-- ask What do we get for `CKIKQIIRGD` ?
-- reply 0 (ThT-inactive (N-Fold <2))

-- ask What do we get for `KIKIQI` ?
-- reply 0 (ThT-inactive (N-Fold <2))

-- ask What do we get for `CKIKIQIRGD` ?
-- reply 0 (ThT-inactive (N-Fold <2))

-- ask What do we get for `KFQFNMW` ?
-- reply 0 (ThT-inactive (N-Fold <2))

-- ask What do we get for `QCKFKFQF` ?
-- reply 1 (ThT. Cat is 1, if Rel. ThT >2)

-- ask What do we get for `MKFKFQF` ?
-- reply 0 (ThT-inactive (N-Fold <2))

-- ask What do we get for `CKYKYQY` ?
-- reply 1 (ThT. Cat is 1, if Rel. ThT >2)

-- ask What do we get for `RGDKIKIQINM` ?
-- reply 1 (ThT. Cat is 1, if Rel. ThT >2)

-- ask What do we get for `KFKFQFNM` ?
-- reply 0 (ThT-inactive (N-Fold <2))

-- ask What do we get for LASLIYR [reference compound] ?
-- reply 0 (ThT-inactive (N-Fold <2))

-- ask What do we get for `KFKFEFEF` ?
-- reply 1 (ThT. Cat is 1, if Rel. ThT >2)

-- ask What do we get for `KAKQAANMWQ` ?
-- reply 0 (ThT-inactive (N-Fold <2))

-- ask What do we get for `CSISIQINM` ?
-- reply 1 (ThT. Cat is 1, if Rel. ThT >2)

----------
type: physicochemical; settings: FigS12 panel A
Overview of reported Tht category (> 2 to blank = +) across a group of substances:

- Substance: "QCKAKAQANMWQ"
  Measured Quantity: "Tht category (> 2 to blank = +)"
  Result Value: "0 (ThT-inactive (N-Fold <2))"

Turning to the following substance.
-- ask Which Tht category (> 2 to blank = +) reading was recorded for the substance `KAKQAANMWQ` ?
-- reply 0 (ThT-inactive (N-Fold <2))

Hello, the source for this data is paper PMC10447463, in case you need it.
